- Assay Protocol: Pharmacokinetic analysis following iv administration to dogs
- Assay type: in vivo
- Protocol Conditions: dog, in vivo

| Compound | hepatic extraction ratio |
| --- | --- |
| NC(=O)CNC(=O)OCc1ccccc1 [IX, N-benzyloxycarbonylglycinamide] | 0.02 |
| CC(=O)NCC(=O)NCc1ccccc1 [compound VII, N-Acetyl,N'-benzylglycinamide] | 0.0125 |
